target: HIV integrase (Human immunodeficiency virus type 1 group M subtype B, UniProt P12497, F1332H)
Construct: HIV integrase full length gene
measurement protocol: Determination of enzyme (HIV integrase) inhibitory activity (strand transfer, microtiter plate, absorbance at 450 nm)
recorded conditions: recombinant HIV integrase (F185H) expressed in E. coli; donor DNA on streptavidin plate, digoxigenin target DNA; 37° C.
pIC50: −log10 of the molar value.
Returns 1 if the recorded pIC50 is greater than or equal to 7, and 0 otherwise.

**Query** Threshold query (pIC50 >= 7) on O=C(O)c1cn(CCF)c2ccc(Cc3cccc(Cl)c3Cl)cc2c1=O
**Result** 1

**Query** Threshold query (pIC50 >= 7) on COc1cc(Cc2cccc(Cl)c2F)cc2c(=O)c(C(=O)O)cn(CCO)c12
**Result** 1

**Query** Threshold query (pIC50 >= 7) on O=C(O)c1cc2c(cc1Cc1cccc(Cl)c1Cl)c(=O)c(C(=O)O)cn2CCO
**Result** 1

**Query** Threshold query (pIC50 >= 7) on CCC[C@@H](CO)n1cc(C(=O)O)c(=O)c2cc(Cc3cccc(Cl)c3F)cc(OC)c21
**Result** 1

**Query** Threshold query (pIC50 >= 7) on O=C(O)c1cn(Cc2ccccc2-c2ccccc2)c2ccc(Cc3cccc(Cl)c3Cl)cc2c1=O
**Result** 0

**Query** Threshold query (pIC50 >= 7) on Cc1cc2c(cc1Cc1cccc(Cl)c1Cl)c(=O)c(C(=O)O)cn2CCO
**Result** 1

**Query** Threshold query (pIC50 >= 7) on O=C(O)c1cn(CCO)c2ccc(Cc3cccc(F)c3Cl)cc2c1=O
**Result** 1

**Query** Threshold query (pIC50 >= 7) on CC[C@H](C)[C@@H](CO)n1cc(C(=O)O)c(=O)c2cc(Cc3cccc(Cl)c3F)c(OC)cc21
**Result** 1

**Query** Threshold query (pIC50 >= 7) on CS(=O)(=O)Nn1cc(C(=O)O)c(=O)c2cc(Cc3cccc(Cl)c3Cl)ccc21
**Result** 1

**Query** Threshold query (pIC50 >= 7) on CC(C)Oc1cc2c(cc1Cc1cccc(Cl)c1F)c(=O)c(C(=O)O)cn2[C@H](CO)C(C)(C)C
**Result** 1

**Query** Threshold query (pIC50 >= 7) on O=C(O)c1cn(CCO)c2ccc(Cc3ccc(F)c(Cl)c3F)cc2c1=O
**Result** 1

**Query** Threshold query (pIC50 >= 7) on COc1c(Cc2cccc(Cl)c2Cl)ccc2c1c(=O)c(C(=O)O)cn2CCO
**Result** 0

**Query** Threshold query (pIC50 >= 7) on COc1cc(Cc2c(F)ccc(Cl)c2F)cc2c(=O)c(C(=O)O)cn(CCO)c12
**Result** 1

**Query** Threshold query (pIC50 >= 7) on O=C(O)c1cn(CCCCCO)c2ccc(Cc3cccc(Cl)c3Cl)cc2c1=O
**Result** 0

**Query** Threshold query (pIC50 >= 7) on CCOc1cc2c(cc1Cc1cccc(Cl)c1Cl)c(=O)c(C(=O)O)cn2CCO
**Result** 1

**Query** Threshold query (pIC50 >= 7) on CCC[C@@H](CO)n1cc(C(=O)O)c(=O)c2cc(Cc3cccc(Cl)c3F)c(OCC)cc21
**Result** 1

**Query** Threshold query (pIC50 >= 7) on CN(C)S(=O)(=O)Cn1cc(C(=O)O)c(=O)c2cc(Cc3cccc(Cl)c3Cl)ccc21
**Result** 1

**Query** Threshold query (pIC50 >= 7) on CC(C)Oc1cc2c(cc1Cc1cccc(Cl)c1F)c(=O)c(C(=O)O)cn2CCO
**Result** 1

**Query** Threshold query (pIC50 >= 7) on CC[C@@H](CO)n1cc(C(=O)O)c(=O)c2cc(Cc3cccc(Cl)c3F)cc(OC(C)C)c21
**Result** 1

**Query** Threshold query (pIC50 >= 7) on CCOc1cc2c(cc1Cc1cccc(Cl)c1F)c(=O)c(C(=O)O)cn2[C@H](CO)C(C)(C)C
**Result** 1

**Query** Threshold query (pIC50 >= 7) on O=C(O)c1cn(Cc2ccccc2)c2ccc(Cc3cccc(Cl)c3Cl)cc2c1=O
**Result** 0

**Query** Threshold query (pIC50 >= 7) on O=C(O)c1cn(CCO)c2ccc(Cc3cccc(-c4ccccc4)c3)cc2c1=O
**Result** 0

**Query** Threshold query (pIC50 >= 7) on CCN(CC)c1cc(Cc2cccc(Cl)c2F)cc2c(=O)c(C(=O)O)cn(CCO)c12
**Result** 1

**Query** Threshold query (pIC50 >= 7) on COc1cc(Cc2cccc(Cl)c2F)cc2c(=O)c(C(=O)O)cn([C@@H](C)CO)c12
**Result** 1
